Origin of values: ChEMBL document CHEMBL4043162

test: Inhibition of Saccharomyces cerevisiae alpha-glucosidase pre-incubated for 15 mins before p-nitrophenyl-alpha-D-glucopyranoside substrate addition and measured after 30 mins by UV spectrometry
REPORTED_METRIC: pIC50
Just so you know, pIC50 here is -log10 of the concentration in molar units; reply with that number alone.

Some solved cases for reference:
CCN(CC)Cc1c(O)cc2oc(-c3ccccc3)cc(=O)c2c1O ... 3.66
CCOC(=O)N1CCN(Cc2c(O)cc3c(c2O)C(=O)CC(c2ccc(O)cc2)O3)CC1 (stereo not given) ... 4.19
O=c1cc(-c2ccc(O)cc2)oc2cc(O)c(C3CCCCN3)c(O)c12 (stereo not given) ... 3.53

Let us move to another entry and its pIC50.
Data request: What value of measured pIC50 is listed for CCOC(=O)c1ccc(N2CCN(Cc3c(O)cc4c(c3O)C(=O)CC(c3ccc(O)cc3)O4)CC2)cc1 (stereo not given) ?
Data returned: 5.39

====

Catalogue of pIC50 values
test: Inhibition of Saccharomyces cerevisiae alpha-glucosidase pre-incubated for 15 mins before p-nitrophenyl-alpha-D-glucopyranoside substrate addition and measured after 30 mins by UV spectrometry
Recall that pIC50 is obtained by taking minus log10 of the concentration measured in molar.

Data request: What value of pIC50 has been reported for the following compound? O=C1CC(c2ccc(O)cc2)Oc2cc(O)c(CN3CCN(CCO)CC3)c(O)c21 (stereo not given)
Data returned: 3.28

Data request: What about O=C1CC(c2ccc(O)cc2)Oc2cc(O)c(CN3CCc4ccccc4C3)c(O)c21 (stereo not given) ?
Data returned: 4.63

Data request: Now consider O=C1CC(c2ccc(O)cc2)Oc2cc(O)c(CN3CCOCC3)c(O)c21 (stereo not given) and answer again.
Data returned: 3.69

Data request: Next record, please: O=C1CC(c2ccc(O)cc2)Oc2cc(O)c(CN3CCCCC3)c(O)c21 (stereo not given)
Data returned: 4.08

====

experiment: Non-competitive inhibition of Saccharomyces cerevisiae alpha-glucosidase pre-incubated for 15 mins before p-nitrophenyl-alpha-D-glucopyranoside substrate addition and measured after 30 mins by UV spectrometry based Dixon plot
REPORTED_METRIC: Ki (µM)
# output: bare number, implied unit µM

O=C1CC(c2ccc(O)cc2)Oc2cc(O)c(CN3CCc4ccccc4C3)c(O)c21 (configuration not stated) ... 37.8

Kindly consider the entry below.
Data request: Record request: Ki value, item CCOC(=O)c1ccc(N2CCN(Cc3c(O)cc4c(c3O)C(=O)CC(c3ccc(O)cc3)O4)CC2)cc1 (configuration not stated)
Data returned: 13.2

====

assay: Inhibition of Saccharomyces cerevisiae alpha-glucosidase pre-incubated for 15 mins before p-nitrophenyl-alpha-D-glucopyranoside substrate addition and measured after 30 mins by UV spectrometry
REPORTED_METRIC: IC50

Oc1ccc(C2CCc3c(O)cc(O)c(C4CCCCN4)c3O2)cc1 (stereo not drawn) ... > 500 µM
O=C1CC(c2ccc(O)cc2)Oc2cc(O)c(C3CCCCN3)c(O)c21 (stereo not drawn) ... 249 µM

# evaluate next
Data request: Could you share which IC50 value was measured for O=c1cc(-c2ccccc2)oc2cc(O)c(CN3CCc4ccccc4C3)c(O)c12 ?
Data returned: > 500 µM
